System Tested: Protein farnesyltransferase (Homo sapiens, UniProt P49354+P49356)
Protocol Description: Inhibition of [3H]FPP incorporation into recombinant Ras-CVIM by human farnesyl transferase
Each entry below lists one item and its recorded IC50 value.
Give your result in µM as a bare value.

Consider the worked cases shown below.
>>> recorded_result("CCCC[C@H]1CN(c2cccc(C)c2C)C(=O)C(=O)N1Cc1cncn1Cc1ccc(C#N)cc1")
3
>>> recorded_result("N#Cc1ccc(Cn2cncc2CN2CCN(c3ccccc3)C(=O)C2=O)cc1")
16
>>> recorded_result("CCCC[C@H]1CN(c2cccc(C)c2C)CC(=O)N1Cc1cncn1Cc1ccc(C#N)cc1")
1.3

Challenge: Param item = N#Cc1ccc(Cn2cncc2CN2CC(=O)N(c3ccccc3)CC2=O)cc1 ; retrieve measured IC50.
Response given: 950

Challenge: Param item = Cc1cccc(N2CCN(Cc3cncn3Cc3ccc(C#N)cc3)C(=O)C2=O)c1C ; retrieve measured IC50.
Response given: 20

Challenge: Param item = N#Cc1ccc(Cn2cncc2CN2CCN(c3cccc(Cl)c3)CC2)cc1 ; retrieve measured IC50.
Response given: 250

Challenge: Param item = N#Cc1ccc(Cn2cncc2CN2CCN(c3cccc(Cl)c3)CC2=O)cc1 ; retrieve measured IC50.
Response given: 100

Challenge: Param item = N#Cc1ccc(Cn2cncc2C(=O)N2CCN(c3cccc(Cl)c3)C(=O)C2)cc1 ; retrieve measured IC50.
Response given: 33

Challenge: Param item = Cc1cccc(N2CCN(Cc3cncn3Cc3ccc(C#N)cc3)CC2=O)c1C ; retrieve measured IC50.
Response given: 11

Challenge: Param item = N#Cc1ccc(Cn2cncc2CN2CCN(c3cccc(Cl)c3)C(=O)C2=O)cc1 ; retrieve measured IC50.
Response given: 11

Challenge: Param item = N#Cc1ccc(Cn2cncc2CN2CCN(c3ccccc3)C(=O)C2)cc1 ; retrieve measured IC50.
Response given: 5
